Below is a list of entries, each paired with its recorded pIC50 value.
Molecular target: M2 receptors (Rattus norvegicus, UniProt P10980)
Sequence (P10980 whole entry): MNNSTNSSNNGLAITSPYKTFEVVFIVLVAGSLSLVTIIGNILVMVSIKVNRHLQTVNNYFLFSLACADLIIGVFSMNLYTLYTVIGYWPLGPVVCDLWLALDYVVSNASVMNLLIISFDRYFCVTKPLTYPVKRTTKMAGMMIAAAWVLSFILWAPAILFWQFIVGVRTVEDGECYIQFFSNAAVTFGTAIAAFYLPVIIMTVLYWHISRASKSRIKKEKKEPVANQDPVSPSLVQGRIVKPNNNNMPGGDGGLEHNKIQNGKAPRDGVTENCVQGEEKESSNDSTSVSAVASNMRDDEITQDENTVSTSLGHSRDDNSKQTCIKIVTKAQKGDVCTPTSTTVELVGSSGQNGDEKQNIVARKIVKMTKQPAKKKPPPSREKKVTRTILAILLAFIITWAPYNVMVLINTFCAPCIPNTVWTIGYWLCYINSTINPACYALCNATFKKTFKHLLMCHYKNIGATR
Experiment: biochemical
Format: binding
Conditions: read-out: ^3 H-QNB M2 IC50
pIC50: −log10 of the molar value. Counter-ions that a name gives are not always drawn.
Value kind: pIC50

Cc1cc(NCCCN2CCN(C)CC2)nc2ccccc12 [Example 3, hemihydrate] | 4.55
Cc1cc(NCCCN(C)C)nc2ccccc12.O=C(O)/C=C/C(=O)O.O=C(O)/C=C/C(=O)O | 4.68
Cc1cc(NCCN(C)C)nc2ccccc12.O=C(O)/C=C/C(=O)O | 4.46
Cc1cc(NCCCCN2CCOCC2)nc2ccccc12 | 4.66
CCN(CC)CCCNc1cc(C)c2ccccc2n1 [Example 11, dihydrochloride hemihydrate] | 4.74
Cc1cc(NCCCN2CCCC2=O)nc2ccccc12 [Example 7, hydrate] | 4.70
Cc1cc(NCCCCN2CCN(C)CC2)nc2ccccc12 [Example 6, hydrate] | 5.26
c1ccc2c(C3CCCCC3)cc(NCCCN3CCOCC3)nc2c1 [Example 10, hydrate] | 4.89
Cl.Cl.c1ccc2nc(NCCCN3CCOCC3)ccc2c1 [Example 2, dihydrochloride] | 3.94
